Reference for the values: PubChem BioAssay

# Assay: TOR pathway GLN3 branch reporter MEP2-GFP changes – S. cerevisiae, multiplex flow cytometry, primary screen (AID 1867);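 also: median GFP channel fluorescence of barcode-gated MEP2-GFP cells measured by flow cytometry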
# Experimental Parameters: S. cerevisiae MEP2-GFP strain, 3 h, at 10 µM, 100% means same as DMSO wells
Results filed as inconclusive are left out. Calls of active or inactive are those of the source.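 The calls were made as follows: active = GFP response, as percent of the DMSO control, above the screen-wide mean plus 3 SD, about 139; inconclusive = no response measured because the compound's own fluorescence interfered; inactive = the rest.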
Possible outcomes: label 1 = active, label 0 = inactive

| Compound | Assigned Label |
| --- | --- |
| CCOc1ncnc2c1[nH]c1ccccc12 | label 0 |
| O=C(O)/C=C/c1cnc[nH]1 | label 0 |
| Nc1ccc(S(=O)(=O)NC(=O)c2ccccc2)cc1 | label 0 |
| O=C(NC1CC1)C1CCN(C2CCN(C(=O)Cc3ccc(F)cc3)CC2)CC1 | label 0 |
| COc1cccc(C2CC(=O)C3=C(C2)Nc2ccccc2N(C(=O)CCC(=O)O)C3c2ccc(F)cc2)c1 (configuration not stated) | label 1 |
| CCCC(=O)Nc1ccccc1NC(C)=O | label 0 |
| CC(C)Oc1ccc(C2CC(=O)N(c3ccc(C(=O)O)cc3)C2=O)cc1 (configuration not stated) | label 0 |
| Cc1c2c(nc3c(C)cccc13)OC(C)C2 (configuration not stated) | label 0 |
| CN(Cc1c(C(=O)N(C)Cc2ccccc2)nc2ccccn12)CC1Cc2ccccc2O1 (configuration not stated) | label 0 |
| COc1cc(C2NCCc3c2[nH]c2ccccc32)ccc1OC(C)C (configuration not stated) | label 0 |
| COc1cc(OC)c(-c2nc3cnccc3n2C)cc1OC | label 0 |
| Cc1c(O)c(=O)ccn1C | label 0 |
| COc1ccc(CNCCC2(C(C)C)CCOC(C)(C)C2)cc1 (configuration not stated) | label 0 |
| COc1ccc(-c2c[n+](CC(=O)OC3CC(C)CCC3C(C)C)c3n2CCC3)cc1 (configuration not stated) | label 0 |
| COc1cc(C(=S)N(C)C)ccc1O | label 0 |
| CN1[C@@H]2CC[C@H]1CC(OC(=O)C(CO)c1ccccc1)C2 (some centres not stated) | label 0 |
| O=C(CN1C(=O)C2CCc3[nH]c4ccccc4c3C2C1=O)N1CCCC1 (configuration not stated) | label 0 |

* * *

# Assay: AML differentiation inducers, ER-HoxA9 marrow cells – cell-based, GFP/MAC1 double positive, flow cytometry, validation set, primary screen (AID 588685);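 also: compound exposure lasts four days before antibody staining and flow analysis; 0% = DMSO wells and 100% = 5 µM fulvestrant positive control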
# Experimental Parameters: active compounds read high, normalized: vehicle 0, fulvestrant 100

| Molecule | Measure Unit | differentiation response |
| --- | --- | --- |
| CC1(C)CC(=O)c2c(nc3ccccc3c2N)C1 | % | 0.24 |
| Cc1csc(N)n1 | % | 9.01 |
| O=C(CSCc1ccccc1)NCCCN1CCOCC1 | % | -14.8 |
| O=C(O)CCSCCC(=O)O | % | -9.53 |
| CC(=O)C1=C(Nc2ccc(C)cc2)CC(C)(O)C(C(C)=O)C1c1ccco1 (stereo unspecified) | % | 14.9 |
| O=c1nc2sc3ccccc3n2c(=O)n1-c1ccc(Cl)cc1 | % | 3.18 |

* * *

# Assay System: Beta-adrenergic receptor kinase 1 (Homo sapiens)
# Assay: GRK2 binders displacing RNA aptamer, biochemical, validation, human GRK2, bead flow cytometry (AID 488806)
# Experimental Parameters: bead-bound GRK2, FAM-aptamer displacement, at 10 µM, active compounds read high

| Compound | Measure Unit | aptamer binding inhibition |
| --- | --- | --- |
| COC1CCN(Cc2cn(Cc3ccccc3)nc2-c2cc3ccccc3o2)CC1 | % | 0 |
| Cc1occc(=O)c1O | % | 1 |
| O=c1cnn([C@@H]2O[C@H](CO)[C@@H](O)[C@H]2O)c(=O)[nH]1 | % | 1 |
| C[C@]12CC[C@@H]3c4ccc(O)cc4CC[C@H]3[C@@H]1CC[C@@H]2OC(=O)CCC(=O)O | % | -7 |
| CCCC(=O)Nc1ccccc1NC(C)=O | % | 1 |
| Cc1ccc(N2C(=O)c3ccccc3C2=O)cc1C | % | 3 |
| O=C(O)c1cccnc1Nc1cccc(C(F)(F)F)c1 | % | 6 |
| Cc1cccc2c(=O)n3c(nc12)CCCCC3 | % | -3 |
| c1ccc(CNc2ncnc3nc[nH]c23)cc1 | % | 6 |
| O=C(O)c1ccc(N2C(=O)/C(=C\c3ccccc3)N=C2c2ccccc2)cc1 | % | 2 |
| CC[N+]1(CC)CC2=Cc3ccccc3CC2C1 (configuration not stated) | % | 2 |
| NCc1ccccc1COc1ccccc1 | % | 0 |
